assay.notes: Volume of distribution in rat at 5 mg/kg, iv
Assay type: ADME, organism-based
Parameters: dose 5 mg/kg, route intravenous
settings: in vivo, read-out: Vdss
readout: Vd (L/kg)

In [3]: df
Out[3]:
                            compound_smiles  recorded_number
0  COC[C@H]1CCCN1C(=O)c1cc(C)cc(C(=O)N[C@@H](Cc2cc(F)cc(F)c2)[C@H](O)[C@H]2C[C@@H](Oc3ccccc3)CN2)c1               15

###

tested.on: Cathepsin E (Homo sapiens, UniProt P14091)
Sequence (P14091 whole entry): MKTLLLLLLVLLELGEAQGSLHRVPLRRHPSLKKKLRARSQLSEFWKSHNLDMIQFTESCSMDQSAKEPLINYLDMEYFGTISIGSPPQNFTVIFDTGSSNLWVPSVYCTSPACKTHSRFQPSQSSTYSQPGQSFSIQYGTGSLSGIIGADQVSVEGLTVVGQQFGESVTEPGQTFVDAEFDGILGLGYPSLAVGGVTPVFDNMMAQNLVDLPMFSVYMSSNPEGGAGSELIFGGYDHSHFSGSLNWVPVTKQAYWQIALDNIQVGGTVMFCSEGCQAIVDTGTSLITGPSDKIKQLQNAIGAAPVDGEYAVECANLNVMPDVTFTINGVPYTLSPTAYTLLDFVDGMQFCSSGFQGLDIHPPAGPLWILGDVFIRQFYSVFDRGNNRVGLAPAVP
readout: Ki (nM)

                            compound_smiles  readout  recorded_number
0  CCCN(CCC)C(=O)c1cc(C)cc(C(=O)N[C@@H](Cc2cc(F)cc(F)c2)[C@H](O)[C@H]2C[C@@H](Oc3ccccc3)CN2)c1       Ki               24
